# system.under.test: human GPR43 receptor (hGPR43) (Homo sapiens, UniProt O15552)
# Construct: expressed in transfected cells
# assay.overview: GTPγS binding assay (SPA method)
# Assay type: biochemical
# measurement.context: membranes expressing hGPR43; assay performed in the presence of SCFA; read-out: EC50 (nM) in GTPγ35S assay
assay.readout: EC50 (nM)

INSERT INTO assay_data (compound, assay_readout, units_of_measure, observed) VALUES
  ('O=C(O)C[C@@H](Cc1ccccc1)C(=O)Nc1nc(-c2ccccc2F)cs1 [Compound 4]', 'EC50', 'nM', 759);

(1) COC(=O)CCN(C(=O)[C@@H](CC(=O)O)Cc1ccccc1)c1nc(-c2ccccc2Cl)cs1 [Compound 126]
(2) COc1ncc(-c2ccc(Cl)cc2-c2csc(N(C(=O)[C@@H](CC(=O)O)CC3CCCC3)C3CC3)n2)cc1Cl [Compound 223]
(3) O=C(O)C[C@@H](Cc1ccccc1)C(=O)Nc1cnc(-c2ccccc2Cl)cn1 [Compound 197]
(4) O=C(O)C[C@H](C(=O)Nc1nc(-c2ccccc2Cl)cs1)c1ccccc1 [Compound 9]
Query block: Hey, quick one: sort these by EC50, low to high? Please, when replying, give the labels in the order that was requested.
Result block: 4, 2, 1, 3

(I) O=C(O)C[C@@H](C(=O)Nc1nc(-c2ccccc2Cl)cs1)c1ccccc1 [Compound 92]
(II) Cc1cc(CC(CC(=O)O)C(=O)N(C)c2nc(-c3ccccc3Cl)cs2)no1 (stereo not shown) [Compound 210]
Query block: Of I versus II , which is the one with smaller reported EC50? Let me know the label of the one you choose.
Result block: I
(I: 249 nM, II: 2680 nM)

(A) O=C(O)C[C@@H](Cc1ccccc1)C(=O)Nc1cc(-c2cccc(C(F)(F)F)c2)n[nH]1 [Compound 203]
(B) CN(C(=O)[C@@H](CC(=O)O)Cc1ccccc1)c1nc(-c2ccccc2-c2ccc(OCc3ccccc3)nc2)cs1 [Compound 158]
Query block: A or B : whose EC50 is greater? State the label of the item chosen.
Result block: A
(A: 1780 nM, B: 49 nM)

(1) N#Cc1ccc(-c2csc(NC(=O)[C@@H](CC(=O)O)Cc3ccccc3)n2)cc1 [Compound 8]
(2) CN(C)c1ccc(-c2ccccc2-c2csc(N(C(=O)[C@@H](CC(=O)O)CC3CCCC3)C3CC3)n2)cn1 [Compound 218]
(3) O=C(Nc1nc(-c2ccccc2Cl)cs1)[C@H]1CC=CC[C@H]1C(=O)O (relative stereo) [Compound 98]
Query block: List the 3 entries from lowest EC50 to highest EC50 value. Please respond with the labels ordered as the question requires.
Result block: 2, 3, 1
(2: 32 nM, 3: 113 nM, 1: 563 nM)

====

# system.under.test: human GPR43 receptor (hGPR43) (Homo sapiens)
# Construct: expressed in transfected cells
# Sequence (O15552 1-330): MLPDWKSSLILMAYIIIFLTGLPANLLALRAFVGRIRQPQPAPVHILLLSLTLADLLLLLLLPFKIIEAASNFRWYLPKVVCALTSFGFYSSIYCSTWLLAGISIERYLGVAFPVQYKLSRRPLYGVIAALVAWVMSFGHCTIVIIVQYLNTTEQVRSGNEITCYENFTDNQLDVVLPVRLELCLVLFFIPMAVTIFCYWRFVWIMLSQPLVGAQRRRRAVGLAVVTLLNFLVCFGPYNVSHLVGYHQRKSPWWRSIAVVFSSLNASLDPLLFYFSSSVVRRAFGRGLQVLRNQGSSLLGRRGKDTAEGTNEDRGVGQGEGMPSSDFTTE
# assay.overview: GTPγS binding assay (SPA method)
# Format: biochemical
# measurement.context: membranes expressing hGPR43; assay performed in the presence of SCFA; read-out: EC50 (nM) in GTPγ35S assay
assay.readout: EC50 (nM)

INSERT INTO assay_data (compound, assay_readout, observed) VALUES
  ('CN(C(=O)C(CC(=O)O)Cc1ccco1)c1nc(-c2ccccc2Cl)cs1 (stereo not drawn)', 'EC50', 77);

(A) COc1ncc(-c2ccc(Cl)cc2-c2csc(N(C)C(=O)[C@@H](CC(=O)O)Cc3ccccc3)n2)cc1Cl
(B) CN(C(=O)[C@@H](CC(=O)O)Cc1ccccc1)c1nc(-c2ccccc2-c2ccc(Cl)cc2)cs1
(C) CN(C(=O)[C@@H](CC(=O)O)Cc1ccccc1)c1nc(-c2ccccc2C#N)cs1
Query block: Rank the 3 compounds: largest EC50 first, smallest last. As an answer, provide the labels arranged in the order called for.
Result block: C, B, A

(A) CN(C(=O)C(CC(=O)O)Cc1cscn1)c1nc(-c2ccccc2Cl)cs1 (stereo not drawn)
(B) COc1ccc(-c2ccccc2-c2csc(N(C)C(=O)[C@@H](CC(=O)O)CC3CCOCC3)n2)cn1
(C) COc1ccc(-c2ccc(Cl)c(-c3csc(N(C)C(=O)[C@@H](CC(=O)O)Cc4ccccc4)n3)c2)cn1
(D) CN(C(=O)[C@@H](CC(=O)O)Cc1ccccc1)c1nc(-c2cc(Cl)cc(Cl)c2Cl)cs1
(E) COc1ccc(-c2ccccc2-c2csc(N(C)C(=O)[C@@H](CC(=O)O)Cc3ccccc3)n2)cc1
Query block: List from greatest to least EC50. Answer format: the labels, ordered as requested.
Result block: E, A, B, C, D
(E: 858 nM, A: 539 nM, B: 244 nM, C: 127 nM, D: 57 nM)

(1) NC(=O)CN(C(=O)[C@@H](CC(=O)O)Cc1ccccc1)c1nc(-c2ccccc2Cl)cs1
(2) CN(C(=O)[C@H]1CCCC[C@H]1C(=O)O)c1nc(-c2ccccc2Cl)cs1 (relative stereo)
(3) CN(C(=O)[C@@H](CC(=O)O)Cc1ccccc1)c1nc(-c2ccccc2-c2ccc(N3CCOCC3)nc2)cs1
Query block: Put the items in order so that reported EC50 rises from first to last. Please reply with the labels ordered as requested. Many thanks.
Result block: 2, 3, 1
(2: 67 nM, 3: 241 nM, 1: 766 nM)

====

# system.under.test: human GPR43 receptor (hGPR43) (Homo sapiens, UniProt O15552)
# Construct: expressed in transfected cells
# assay.overview: GTPγS binding assay (SPA method)
# Format: biochemical
# measurement.context: membranes expressing hGPR43; assay performed in the presence of SCFA; read-out: EC50 (nM) in GTPγ35S assay
assay.readout: EC50 (nM)

Example cases with answers are listed next.
INSERT INTO results (compound, observed) VALUES
  ('O=C(O)C[C@@H](Cc1ccccc1)C(=O)N(CCCO)c1nc(-c2ccccc2Cl)cs1 [Compound 156]', 867),
  ('COc1ccc(CC(CC(=O)O)C(=O)N(C)c2nc(-c3ccccc3Cl)cs2)cc1 (centres unmarked) [Compound 99]', 567);

(P) COc1ncc(-c2ccc(Cl)cc2-c2csc(N(C(=O)[C@@H](CC(=O)O)CC3CCCC3)C3CC3)n2)cc1F [Compound 224]
(Q) O=C(O)C[C@@H](Cc1ccccc1)C(=O)Nc1nc(-c2ccc(Cl)cc2Cl)cs1 [Compound 3]
(R) Cc1ccc(-c2csc(NC(=O)[C@@H](CC(=O)O)Cc3ccccc3)n2)o1 [Compound 202]
(S) CN(C(=O)[C@@H](CC(=O)O)Cc1ccccc1)c1nc(-c2ccccc2-c2ccccc2)cs1 [Compound 111]
Query block: Sort low-to-high on EC50, please. Could you list the labels in the order requested?
Result block: P, S, Q, R

(a) CN(C(=O)[C@@H](CC(=O)O)Cc1ccccc1)c1nc(-c2ccccc2-c2ccoc2)cs1 [Compound 135]
(b) COc1ccc(-c2ccccc2-c2csc(N(C)C(=O)[C@@H](CC(=O)O)CC3CCCC3)n2)cn1 [Compound 139]
Query block: Please compare: a and b . Report which one has the smaller EC50 value. Could you answer with the label of the item you picked?
Result block: b

====

# system.under.test: human GPR43 receptor (hGPR43) (Homo sapiens, UniProt O15552)
# Construct: expressed in transfected cells
# Sequence (O15552 1-330): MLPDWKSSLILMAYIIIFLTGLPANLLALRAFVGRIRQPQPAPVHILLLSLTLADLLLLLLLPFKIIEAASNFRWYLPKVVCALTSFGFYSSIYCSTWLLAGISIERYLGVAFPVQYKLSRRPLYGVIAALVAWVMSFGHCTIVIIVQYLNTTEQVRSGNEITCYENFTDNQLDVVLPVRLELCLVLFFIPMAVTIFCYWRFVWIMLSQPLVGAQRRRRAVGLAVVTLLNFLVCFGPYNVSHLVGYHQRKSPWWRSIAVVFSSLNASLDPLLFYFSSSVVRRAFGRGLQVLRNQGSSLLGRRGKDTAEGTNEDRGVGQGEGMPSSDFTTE
# assay.overview: GTPγS binding assay (SPA method)
# Type: biochemical
# measurement.context: membranes expressing hGPR43; assay performed in the presence of SCFA; read-out: EC50 (nM) in GTPγ35S assay
assay.readout: EC50 (nM)

Recorded results for 8 compounds are shown here.
INSERT INTO results (compound, units_of_measure, observed) VALUES
  ('CN(C(=O)[C@@H](CC(=O)O)Cc1ccccc1)c1nc(-c2ccccc2-c2ccc(OC3CCOCC3)nc2)cs1 [Compound 141]', 'nM', 996),
  ('CN(C(=O)[C@@H](CC(=O)O)Cc1ccccc1)c1nc(-c2ccccc2-c2ccc(N3CCCC3)nc2)cs1 [Compound 131, 2,2,2-trifluoroacetate]', 'nM', 96),
  ('O=C(O)C[C@@H](CC1CCCCC1)C(=O)Nc1nc(-c2ccccc2Cl)cs1 [Compound 18]', 'nM', 104),
  ('O=C(O)C[C@@H](Cc1cccc(F)c1)C(=O)Nc1nc(-c2ccccc2Cl)cs1 [Compound 93]', 'nM', 493),
  ('O=C(O)C[C@@H](Cc1ccccc1)C(=O)Nc1nc(-c2ccc(Cl)c(Cl)c2)cs1 [Compound 5]', 'nM', 292),
  ('CN(C(=O)[C@@H](CC(=O)O)Cc1ccccc1)c1nc(-c2ccccc2-c2ccc(Cl)nc2)cs1 [Compound 108]', 'nM', 305),
  ('COc1ccc(-c2ccccc2-c2csc(N(C(=O)[C@@H](CC(=O)O)Cc3ccccc3)C3CC3)n2)cn1 [Compound 178]', 'nM', 30),
  ('CC(C)[C@H](CC(=O)O)C(=O)N(C)c1nc(-c2ccccc2Cl)cs1 [Compound 94]', 'nM', 200);

(P) CN(C(=O)[C@@H](CC(=O)O)Cc1ccccc1)c1nc(-c2ccccc2-c2cnc3c(ccn3C)c2)cs1 [Compound 217]
(Q) CN(C(=O)[C@@H](CC(=O)O)Cc1ccccc1)c1nc(-c2ccccc2-c2ccc(C#N)cc2)cs1 [Compound 206]
(R) CN(C(=O)C(CC(=O)O)CC1CC1)c1nc(-c2ccccc2Cl)cs1 (stereo not drawn) [Compound 113]
(S) O=C(O)C[C@@H](CC1CCCC1)C(=O)N(c1nc(-c2ccccc2-c2ccc(N3CCCC3=O)nc2)cs1)C1CC1 [Compound 183]
Query block: Order the items by recorded EC50; the first position goes to the largest value. Response format: the labels, sorted as the prompt asks.
Result block: Q, R, P, S

(P) CN(C(=O)C(CC(=O)O)CC1CCCCC1)c1nc(-c2ccccc2Cl)cs1 (stereo not drawn) [Compound 103]
(Q) Cc1sc(NC(=O)[C@@H](CC(=O)O)Cc2ccccc2)c(C(N)=O)c1-c1ccc(Cl)cc1Cl [Compound 207]
Query block: Lab note: check whether P or Q shows the higher recorded EC50. Provide the label of your selected option as the answer.
Result block: Q
